Kindly supply the reported log10 of IC50 values for the records listed here.
Lab note - IC50 converted to log10 from values in nM.

Which measured log10 of IC50 belongs to FC(F)(F)c1cc(Br)cc(Nc2nnc(Cc3ccncc3)c3ccccc23)c1 , tested on Vascular endothelial growth factor receptor 1 (Homo sapiens, UniProt P17948)?
2.78

Entry COc1cc(Nc2nnc(Cc3ccncc3)c3ccccc23)ccc1Cl , system Vascular endothelial growth factor receptor 1 (Homo sapiens, UniProt P17948): what log10 of IC50 was measured?
2.41

Lab note: need log10 of IC50 for CN(c1ccc(Cl)cc1)c1nnc(Cc2ccncc2)c2ccccc12 on Vascular endothelial growth factor receptor 1 (Homo sapiens, UniProt P17948), anyone have it?
3.36

Hi! What's the reported log10 of IC50 for FC(F)(F)c1cc(Nc2nnc(Cc3ccncc3)c3ccccc23)ccc1Cl on Vascular endothelial growth factor receptor 1 (Homo sapiens, UniProt P17948)?
2.78

Which log10 of IC50 is reported with Vascular endothelial growth factor receptor 1 (Homo sapiens, UniProt P17948) for this entry: Clc1ccc(Nc2nnc(Cc3ccncc3)c3ccccc23)cc1Cl ?
1.85

Checklist item: log10 of IC50 tested on Vascular endothelial growth factor receptor 1 (Homo sapiens, UniProt P17948), entry Cc1c(Cc2ccncc2)nnc(Nc2ccc(Cl)cc2)c1C , value?
2.41

Form entry - test system: Vascular endothelial growth factor receptor 1 (Homo sapiens, UniProt P17948); read-out: log10 of IC50; compound: Fc1cc(Nc2nnc(Cc3ccncc3)c3ccccc23)cc(C(F)(F)F)c1
Sequence (P17948 whole entry): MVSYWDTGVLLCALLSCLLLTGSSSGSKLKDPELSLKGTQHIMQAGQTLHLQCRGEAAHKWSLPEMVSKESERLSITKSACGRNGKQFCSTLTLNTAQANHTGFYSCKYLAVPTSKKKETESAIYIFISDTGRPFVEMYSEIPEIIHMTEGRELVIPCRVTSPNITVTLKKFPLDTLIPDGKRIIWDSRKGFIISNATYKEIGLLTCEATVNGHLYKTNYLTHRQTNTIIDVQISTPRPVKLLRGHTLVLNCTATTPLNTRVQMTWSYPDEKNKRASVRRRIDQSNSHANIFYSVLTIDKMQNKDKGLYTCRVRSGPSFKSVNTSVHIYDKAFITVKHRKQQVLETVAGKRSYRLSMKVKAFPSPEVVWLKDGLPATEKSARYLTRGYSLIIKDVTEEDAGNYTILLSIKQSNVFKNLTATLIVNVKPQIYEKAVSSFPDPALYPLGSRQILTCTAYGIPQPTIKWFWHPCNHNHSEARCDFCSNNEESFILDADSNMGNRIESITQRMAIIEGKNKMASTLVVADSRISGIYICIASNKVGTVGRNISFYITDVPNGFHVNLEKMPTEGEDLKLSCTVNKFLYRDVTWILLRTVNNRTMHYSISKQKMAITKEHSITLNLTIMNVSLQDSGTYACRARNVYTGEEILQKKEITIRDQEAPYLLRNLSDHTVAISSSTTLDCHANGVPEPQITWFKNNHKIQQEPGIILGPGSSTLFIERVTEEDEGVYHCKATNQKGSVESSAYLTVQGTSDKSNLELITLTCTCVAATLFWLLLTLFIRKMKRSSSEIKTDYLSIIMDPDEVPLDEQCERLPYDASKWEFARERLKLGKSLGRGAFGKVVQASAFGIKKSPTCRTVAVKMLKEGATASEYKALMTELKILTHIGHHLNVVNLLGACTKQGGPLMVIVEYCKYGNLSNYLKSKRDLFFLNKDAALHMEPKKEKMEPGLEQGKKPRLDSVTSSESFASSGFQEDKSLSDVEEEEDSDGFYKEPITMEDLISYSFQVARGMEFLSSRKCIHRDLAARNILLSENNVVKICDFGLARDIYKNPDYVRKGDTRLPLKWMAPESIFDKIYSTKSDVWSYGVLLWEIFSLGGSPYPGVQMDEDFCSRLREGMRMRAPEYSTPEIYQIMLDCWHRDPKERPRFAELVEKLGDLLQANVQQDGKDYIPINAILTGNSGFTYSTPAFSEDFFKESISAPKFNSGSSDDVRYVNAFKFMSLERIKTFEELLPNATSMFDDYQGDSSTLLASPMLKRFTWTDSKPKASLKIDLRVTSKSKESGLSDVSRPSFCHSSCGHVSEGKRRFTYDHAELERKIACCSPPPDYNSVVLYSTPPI
2.54

Short answer please: log10 of IC50, Vascular endothelial growth factor receptor 1 (Homo sapiens, UniProt P17948), entry Clc1ccc(Sc2nnc(Cc3ccncc3)c3ccccc23)cc1
1.85

Find log10 of IC50 (Vascular endothelial growth factor receptor 1 (Homo sapiens, UniProt P17948)) for the entry Nc1ccc2c(Cc3ccncc3)nnc(Nc3ccc(Cl)cc3)c2c1
2.81

Give Vascular endothelial growth factor receptor 1 (Homo sapiens, UniProt P17948) log10 of IC50 for Clc1ccc(Oc2nnc(Cc3ccncc3)c3ccccc23)cc1
1.78
